Origin of values: patent US4723008A

assay: Toxicity, 50% lethal dose, intravenous; details: mouse, in vivo, ddY male mice, read-out: LD50 (Intravenous administration mg/kg)

{"Compound": "CC(C)=CCCC(C)=CCCC(C)=CCCC(C)=CCCC(C)=CCCC(C)=CCCC(C)=CCCC(C)=CCCC(C)=CCN(CCc1ccccc1)CC(O)CNC(C)(C)C (centres unmarked) [drawing 64]", "Unit String": "mg/kg", "LD50": 28}
{"Compound": "CC(C)=CCCC(C)=CCCC(C)=CCCC(C)=CCCC(C)=CCCC(C)=CCCC(C)=CCCC(C)=CCCC(C)=CCN(CCc1ccccc1)CC(O)CN1CCN(CCO)CC1 (centres unmarked) [drawing 65]", "Unit String": "mg/kg", "LD50": 338}
{"Compound": "CC(C)=CCCC(C)=CCCC(C)=CCCC(C)=CCCC(C)=CCCC(C)=CCCC(C)=CCCC(C)=CCCC(C)=CCN(CCO)Cc1ccccc1 [drawing 66]", "Unit String": "mg/kg", "LD50": 791}
{"Compound": "CC(C)=CCCC(C)=CCCC(C)=CCCC(C)=CCCC(C)=CCCC(C)=CCCC(C)=CCCC(C)=CCCC(C)=CCCC(C)=CCN(Cc1ccccc1)CC(O)CN(CCO)CCO (centres unmarked) [drawing 63]", "Unit String": "mg/kg", "LD50": 162}
{"Compound": "CC(C)=CCCC(C)=CCCC(C)=CCCC(C)=CCCC(C)=CCCC(C)=CCCC(C)=CCCC(C)=CCCC(C)=CCCC(C)=CCN(CCO)CC(O)c1ccccc1 (centres unmarked) [drawing 62]", "Unit String": "mg/kg", "LD50": 258}
